Values compiled from patent US20250296938A1.

System: KRas G12C mutant
Experiment: Ras GTP binding domain inhibition assay (Cy3-GTP/Cy5-GTP competition)
Design: species or system human
Conditions: 20 μM; with SOS (Table 7A)
reported-metric: KRas G12C mutant + SOS: % inh.

Solved cases below.
# molecule, readout-value
records = [
    ("CO[C@H]1CC[C@@H](Nc2nc(-c3nccn3C)nc(C(=O)N3CCc4c(O)cccc4C3)c2C)C1 [drawing 901]", "A (1-25% inhibition)"),
    ("CO[C@H]1C[C@@H](Nc2nc(-c3nccn3C)nc3sccc23)C1 [drawing 903]", "D (76-100% inhibition)"),
    ("CC(C)COc1ccc(-c2csc3c(O)nc(-c4nccn4Cc4ccccn4)nc23)cn1 [drawing 899]", "C (51-75% inhibition)"),
    ("Cn1ccc(-c2sc3nc(-c4nccn4C)nc(N[C@@H]4CC[C@H](O)C4)c3c2-c2ccccc2)n1 (racemic) [drawing 909]", "A (1-25% inhibition)"),
    ("COCCn1ccnc1-c1nc(O)c2scc(-c3ccc(OCC(C)C)nc3)c2n1 [drawing 898]", "C (51-75% inhibition)"),
]

Parameter requested: KRas G12C mutant + SOS: % inh.. Apply to each item below.
1. COC1CCC(Nc2nc(-c3nccn3C)nc3sc(-c4cccc5[nH]ncc45)c(-c4ccccc4)c23)C1 (stereo not drawn) [drawing 888]
2. CCn1cc(Nc2nc(-c3ccccn3)nc(O)c2OC)cn1 [drawing 881]
3. CO[C@H]1C[C@@H](Nc2nc(-c3nccn3C)nc3sc(-c4cnn(C)c4)c(-c4ccccc4)c23)C1 [drawing 892]
4. CO[C@H]1C[C@H](Nc2nc(-c3nccn3C)nc3sc(-c4ccn(C)n4)c(-c4ccccc4)c23)C1 [drawing 906]
5. CO[C@H]1C[C@@H](Nc2nc(-c3nccn3C)nc3sc(C(=O)NC(C)C)c(-c4ccccc4)c23)C1 [drawing 920]
6. COc1cccc(-c2sc3nc(-c4nccn4C)nc(NC4CCC(OC)C4)c3c2C)c1F (stereo not drawn) [drawing 893]
7. COc1c(O)nc(-c2ccccn2)nc1Nc1ccccc1 [drawing 880]

1. D (76-100% inhibition)
2. B (26-50% inhibition)
3. D (76-100% inhibition)
4. D (76-100% inhibition)
5. D (76-100% inhibition)
6. C (51-75% inhibition)
7. B (26-50% inhibition)

Parameter requested: KRas G12C mutant + SOS: % inh.. Apply to each item below.
1. CO[C@H]1CC[C@@H](Nc2nc(-c3nccn3C)nc3sc(C(=O)N4CCCC4)c(-c4ccccc4)c23)C1 [drawing 926]
2. CO[C@H]1CC[C@@H](Nc2nc(-c3nccn3C)nc3sc(C(=O)NC(C)C)c(-c4ccccc4)c23)C1 [drawing 924]
3. Cc1c(-c2ccn(C)n2)sc2nc(-c3nccn3C)nc(NCCOC(=O)N(C)C)c12 [drawing 918]
4. Cc1c(-c2ccn(C)n2)sc2nc(-c3nccn3C)nc(NCCCS(C)(=O)=O)c12 [drawing 916]
5. COc1cccc(Cn2ccnc2-c2nc(O)c3scc(-c4ccc(OCC(C)C)nc4)c3n2)c1 [drawing 900]

1: D (76-100% inhibition); 2: D (76-100% inhibition); 3: C (51-75% inhibition); 4: C (51-75% inhibition); 5: B (26-50% inhibition)

Parameter requested: KRas G12C mutant + SOS: % inh.. Apply to each item below.
1. Cn1ccc(-c2sc3nc(-c4nccn4C)nc(N[C@H]4C[C@@H](O)C4)c3c2-c2ccccc2)n1 [drawing 908]
2. CO[C@H]1CC[C@@H](Nc2nc(-c3nccn3C)nc3sc(-c4ccn(C(C)C)n4)c(C)c23)C1 [drawing 919]
3. CO[C@H]1CC[C@@H](Nc2nc(-c3nccn3C)nc3sc(-c4ccn(C(C)C)n4)c(-c4ccccc4)c23)C1 [drawing 912]
4. COCCNC(=O)c1sc2nc(-c3nccn3C)nc(N[C@H]3C[C@@H](OC)C3)c2c1-c1ccccc1 [drawing 921]
5. COCCNC(=O)c1sc2nc(-c3nccn3C)nc(N[C@@H]3CC[C@H](OC)C3)c2c1-c1ccccc1 [drawing 925]
6. COc1cccc(-c2sc3nc(-c4nccn4C)nc(NC4CCC(OC)C4)c3c2-c2ccccc2)c1F (stereo not drawn) [drawing 883]

1. A (1-25% inhibition)
2. D (76-100% inhibition)
3. D (76-100% inhibition)
4. D (76-100% inhibition)
5. D (76-100% inhibition)
6. D (76-100% inhibition)

Parameter requested: KRas G12C mutant + SOS: % inh.. Apply to each item below.
1. CCOc1cccc(Nc2nc(-c3ccccn3)nc(O)c2OC)c1 [drawing 882]
2. COC1CCN(C(=O)c2sc3nc(-c4nccn4C)nc(N[C@H]4C[C@@H](OC)C4)c3c2-c2ccccc2)C1 (stereo partly drawn) [drawing 923]
3. CO[C@H]1C[C@@H](Nc2nc(-c3ncc[nH]3)nc3sc(-c4ccn(C)n4)c(-c4ccccc4)c23)C1 [drawing 910]
4. COc1c(F)cccc1-c1sc2nc(-c3nccn3C)nc(NC3CCC(OC)C3)c2c1-c1ccccc1 (stereo not drawn) [drawing 886]

C (51-75% inhibition)
C (51-75% inhibition)
B (26-50% inhibition)
A (1-25% inhibition)
